These entries and their values trace back to paper PMC5909127.

Target: WT somatic BET bromodomains
Test: ITC
Conditions: mean and SD of all somatic bromodomains
Measured ITC pKd ± SD WT of individual entries
Please give only the number in your answer, with no unit.

Give ITC pKd ± SD WT for CC[C@@H](C(=O)OC)[C@@H]1N=C(c2ccc(Cl)cc2)c2cc(OC)ccc2-n2c(C)nnc21 (relative stereo)
5.1

Give ITC pKd ± SD WT for CCNC(=O)[C@H](C)[C@@H]1N=C(c2ccc(Cl)cc2)c2cc(OC)ccc2-n2c(C)nnc21 (relative stereo)
5.6

Give ITC pKd ± SD WT for C=CC[C@@H](C(=O)OC)[C@@H]1N=C(c2ccc(Cl)cc2)c2cc(OC)ccc2-n2c(C)nnc21 (racemic)
5.1

Give ITC pKd ± SD WT for CCNC(=O)[C@H](C)[C@@H]1N=C(c2ccc(Cl)cc2)c2ccc(OC)cc2-n2c(C)nnc21 (relative stereo)
4.5

----------
Assay: WT Cell Cytotoxicity (CellTiter-Glo)
Details: human, MV4-11 cells (BET-dependent AML cell line)
readout type: CC50 at 48 h (nM)
State the answer as a number, implicitly in nM.

Give CC50 at 48 h for COC(=O)[C@H](C)[C@@H]1N=C(c2ccc(Cl)cc2)c2ccc(OC)cc2-n2c(C)nnc21
2510

----------
Molecular target: BRD4 BD1 L/V (Homo sapiens, UniProt O60885, L94V)
Assay: ITC
Format: binding
Details: ITC
Measured ΔH BRD4 BD1 L/V of individual entries
State the answer as a number, implicitly in kcal/mol.

// below: answered compounds
# compound, tested system, unit name, ΔH BRD4 BD1 L/V
measured = [
    ("CC[C@@H](C(=O)OC)[C@@H]1N=C(c2ccc(Cl)cc2)c2cc(OC)ccc2-n2c(C)nnc21 (relative stereo) [Compound 4]", "BRD4 BD1 L/V (Homo sapiens, UniProt O60885, L94V)", "kcal/mol", -10.3),
    ("CCNC(=O)[C@H](C)[C@@H]1N=C(c2ccc(Cl)cc2)c2ccc(OC)cc2-n2c(C)nnc21 (relative stereo) [Compound 21]", "BRD4 BD1 L/V (Homo sapiens, UniProt O60885, L94V)", "kcal/mol", -5.9),
    ("C=CC[C@@H](C(=O)OC)[C@@H]1N=C(c2ccc(Cl)cc2)c2cc(OC)ccc2-n2c(C)nnc21 (racemic) [Compound 5]", "BRD4 BD1 L/V (Homo sapiens, UniProt O60885, L94V)", "kcal/mol", -7.4),
]

Give ΔH BRD4 BD1 L/V for CCNC(=O)[C@H](CC)[C@@H]1N=C(c2ccc(Cl)cc2)c2cc(OC)ccc2-n2c(C)nnc21 (relative stereo) [Compound 17]
-5.9

----------
Measured AlphaLISA pIC50 ± SD Δ of individual entries
System: L/V BET bromodomains (BD1 and BD2 of BRD2, BRD3 and BRD4)
Test: competitive AlphaLISA (Bio-JQ1 displacement)
Format: binding, human
Settings: L/V minus WT
Please give only the number in your answer, with no unit.

# molecule, tested system, AlphaLISA pIC50 ± SD Δ
rows = [
    ("CC[C@@H](C(=O)N(CC)CC)[C@@H]1N=C(c2ccc(Cl)cc2)c2cc(OC)ccc2-n2c(C)nnc21 (relative stereo)", "L/V BET bromodomains (BD1 and BD2 of BRD2, BRD3 and BRD4)", 1.2),
]

// fetch AlphaLISA pIC50 ± SD Δ for CCN(CC)C(=O)[C@H](C)[C@@H]1N=C(c2ccc(Cl)cc2)c2cc(OC)ccc2-n2c(C)nnc21 (relative stereo) ; system: L/V BET bromodomains (BD1 and BD2 of BRD2, BRD3 and BRD4)
1.2

// fetch AlphaLISA pIC50 ± SD Δ for CC[C@@H](C(=O)OC(C)(C)C)[C@@H]1N=C(c2ccc(Cl)cc2)c2ccc(OC)cc2-n2c(C)nnc21 ; system: L/V BET bromodomains (BD1 and BD2 of BRD2, BRD3 and BRD4)
0.4

// fetch AlphaLISA pIC50 ± SD Δ for CCC[C@@H](C(=O)OC)[C@@H]1N=C(c2ccc(Cl)cc2)c2cc(OC)ccc2-n2c(C)nnc21 (relative stereo) ; system: L/V BET bromodomains (BD1 and BD2 of BRD2, BRD3 and BRD4)
0.6

// fetch AlphaLISA pIC50 ± SD Δ for COC(=O)[C@H](C)[C@@H]1N=C(c2ccc(Cl)cc2)c2ccc(OC)cc2-n2c(C)nnc21 (racemic) ; system: L/V BET bromodomains (BD1 and BD2 of BRD2, BRD3 and BRD4)
1.4

// fetch AlphaLISA pIC50 ± SD Δ for C=CC[C@@H](C(=O)OC)[C@@H]1N=C(c2ccc(Cl)cc2)c2cc(OC)ccc2-n2c(C)nnc21 (racemic) ; system: L/V BET bromodomains (BD1 and BD2 of BRD2, BRD3 and BRD4)
1.5

----------
Biological target: BRD4 BD1 WT (Homo sapiens, UniProt O60885)
Experiment: ITC
Type: binding
Details: ITC, 30°C; read-out: Kd BRD4 BD1 WT
pKd: −log10 of the molar value.
readout type: pKd

Give pKd for CCNC(=O)[C@H](CC)[C@@H]1N=C(c2ccc(Cl)cc2)c2cc(OC)ccc2-n2c(C)nnc21 (relative stereo) [Compound 17]
< 4.22

----------
Test: in vitro
Conditions: BALB/c, mouse, plasma, pH 7.4
Measured half-life at 50 µM of individual entries

# compound, measured result
records = [
    ("CCNC(=O)[C@H](C)[C@@H]1N=C(c2ccc(Cl)cc2)c2cc(OC)ccc2-n2c(C)nnc21 (relative stereo)", "> 3 h"),
]

Read the next record carefully.
Give half-life at 50 µM for CCNC(=O)[C@H](CC)[C@@H]1N=C(c2ccc(Cl)cc2)c2cc(OC)ccc2-n2c(C)nnc21 (relative stereo)
> 3 h

----------
Measured half-life at 50 µM of individual entries
Assay: Plasma Half-life
Conditions: BALB/c, mouse, pH 7.4

// below: answered compounds
# compound, half-life at 50 µM
records = [
    ("C=CC[C@@H](C(=O)OC)[C@@H]1N=C(c2ccc(Cl)cc2)c2ccc(OC)cc2-n2c(C)nnc21 (relative stereo)", "> 3 h"),
    ("COC(=O)CC1N=C(c2ccc(Cl)cc2)c2ccc(OC)cc2-n2c(C)nnc21 (stereo not shown)", "1.12 h"),
    ("C=CC[C@@H](C(=O)OC(C)(C)C)[C@@H]1N=C(c2ccc(Cl)cc2)c2cc(OC)ccc2-n2c(C)nnc21", "> 3 h"),
]

Give half-life at 50 µM for CC[C@@H](C(=O)OC(C)(C)C)[C@@H]1N=C(c2ccc(Cl)cc2)c2ccc(OC)cc2-n2c(C)nnc21
> 3 h

----------
Molecular target: BRD4 BD2 WT (Homo sapiens)
Experiment: competitive AlphaLISA
Type: binding
readout type: pIC50
The meaning of pIC50 here: minus log10 of the concentration in molar units.

# compound, tested system, measured result
records = [
    ("C=CC[C@@H](C(=O)OC)[C@@H]1N=C(c2ccc(Cl)cc2)c2ccc(OC)cc2-n2c(C)nnc21 (relative stereo)", "BRD4 BD2 WT (Homo sapiens)", 4.20),
]

Give pIC50 for CC[C@@H](C(=O)N(CC)CC)[C@@H]1N=C(c2ccc(Cl)cc2)c2cc(OC)ccc2-n2c(C)nnc21 (relative stereo)
4.50

Give pIC50 for C=CC[C@@H](C(=O)OC(C)(C)C)[C@@H]1N=C(c2ccc(Cl)cc2)c2ccc(OC)cc2-n2c(C)nnc21
5.00

Give pIC50 for C=CC[C@@H](C(=O)NCC)[C@@H]1N=C(c2ccc(Cl)cc2)c2cc(OC)ccc2-n2c(C)nnc21 (relative stereo)
4.20

Give pIC50 for COC(=O)[C@H](C)[C@@H]1N=C(c2ccc(Cl)cc2)c2ccc(OC)cc2-n2c(C)nnc21 (racemic)
5.20

----------
Molecular target: BRD4 BD1 WT (Homo sapiens, UniProt O60885)
Test: ITC
Type: binding
readout type: Kd (µM)
State the answer as a number, implicitly in µM.

// below: answered compounds
# compound, Kd, µM
records = [
    ("COC(=O)[C@H](C)[C@@H]1N=C(c2ccc(Cl)cc2)c2ccc(OC)cc2-n2c(C)nnc21 [(2R,3S)-7]", 58),
    ("COC(=O)[C@H](C)[C@@H]1N=C(c2ccc(Cl)cc2)c2ccc(OC)cc2-n2c(C)nnc21 (racemic) [Compound 7]", 28),
    ("C=CC[C@@H](C(=O)OC)[C@@H]1N=C(c2ccc(Cl)cc2)c2cc(OC)ccc2-n2c(C)nnc21 (racemic)", 9.7),
    ("CC[C@@H](C(=O)OC)[C@@H]1N=C(c2ccc(Cl)cc2)c2cc(OC)ccc2-n2c(C)nnc21 (relative stereo)", 2.5),
]

Read the next record carefully.
Give Kd for CCNC(=O)[C@H](C)[C@@H]1N=C(c2ccc(Cl)cc2)c2ccc(OC)cc2-n2c(C)nnc21 (relative stereo)
39

----------
Molecular target: BRD4 BD1 L/V (Homo sapiens, UniProt O60885, L94V)
Experiment: ITC
Assay type: binding
Details: Kd BRD4 BD1 L/V, ITC of separated enantiomers and racemates; total compound concentration
readout type: Kd

// below: answered compounds
# compound, Kd
measured = [
    ("COC(=O)[C@H](C)[C@@H]1N=C(c2ccc(Cl)cc2)c2ccc(OC)cc2-n2c(C)nnc21 [(2R,3S)-7]", "170 nM"),
    ("CC[C@@H](C(=O)OC)[C@@H]1N=C(c2ccc(Cl)cc2)c2ccc(OC)cc2-n2c(C)nnc21 (racemic) [Compound 8]", "840 nM"),
    ("CC[C@@H](C(=O)OC)[C@@H]1N=C(c2ccc(Cl)cc2)c2ccc(OC)cc2-n2c(C)nnc21 (relative stereo) [(2R,3S)-8]", "440 nM"),
]

Read the next record carefully.
Give Kd for COC(=O)[C@H](C)[C@@H]1N=C(c2ccc(Cl)cc2)c2ccc(OC)cc2-n2c(C)nnc21 (racemic) [Compound 7]
500 nM
